# Experimental System: T1, human FcRn/b2M (human, UniProt P61769 21-119, biotinylated)
# T1 construct: bought recombinant biotinylated protein (ACRO FCM-H82W4 or Immunitrack ITF01); also called hFcRn; hFcRn/hb2M
# T1 sequence (chain, as listed by the source limits assumed, chain 1 of 2): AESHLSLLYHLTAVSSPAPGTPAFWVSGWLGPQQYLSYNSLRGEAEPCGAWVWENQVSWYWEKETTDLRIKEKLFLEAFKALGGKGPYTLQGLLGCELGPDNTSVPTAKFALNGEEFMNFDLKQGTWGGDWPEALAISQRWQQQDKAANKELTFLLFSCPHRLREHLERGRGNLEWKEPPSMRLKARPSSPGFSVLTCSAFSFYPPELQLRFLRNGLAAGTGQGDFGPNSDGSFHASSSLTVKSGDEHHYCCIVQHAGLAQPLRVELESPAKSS
# T1 sequence (P61769 21-119 limits assumed, chain 2 of 2): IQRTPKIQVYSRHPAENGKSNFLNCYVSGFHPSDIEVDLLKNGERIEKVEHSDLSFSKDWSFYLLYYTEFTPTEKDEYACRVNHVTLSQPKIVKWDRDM
# Method Notes: SPR pH 7.4;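 further: surface plasmon resonance kinetics, periplasmic extracts diluted 1:10 flowed over immobilized target at 25 °C, 120 s association then 600–3600 s dissociation, buffer with 150 mM NaCl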
Endpoint Label: koff
Report as: number unit

Provide koff value for the following binder: T0263018B11 G26D (VHH, name in Kabat numbering, FLAG3-His6 tagged) VHH: EVQLVESGGGVVQPGGSLRLSCAASDFTFSSYAMYWVRQAPGKGLEWVSAISSGGGSTDYADSVKGRFTISRDNSKNTLYLQMNSLRPEDTALYYCAADTLYTSLTWYSYWGQGTLVTVSS
0.063 s⁻¹

Provide koff value for the following binder: T0263018B11 G26L (VHH, name in Kabat numbering, FLAG3-His6 tagged) VHH: EVQLVESGGGVVQPGGSLRLSCAASLFTFSSYAMYWVRQAPGKGLEWVSAISSGGGSTDYADSVKGRFTISRDNSKNTLYLQMNSLRPEDTALYYCAADTLYTSLTWYSYWGQGTLVTVSS
0.041 s⁻¹

Provide koff value for the following binder: T0263018B11 T96Q (VHH, name in Kabat numbering, FLAG3-His6 tagged) VHH: EVQLVESGGGVVQPGGSLRLSCAASGFTFSSYAMYWVRQAPGKGLEWVSAISSGGGSTDYADSVKGRFTISRDNSKNTLYLQMNSLRPEDTALYYCAADQLYTSLTWYSYWGQGTLVTVSS
0.091 s⁻¹

Provide koff value for the following binder: T0263018B11 G26S (VHH, name in Kabat numbering, FLAG3-His6 tagged) VHH: EVQLVESGGGVVQPGGSLRLSCAASSFTFSSYAMYWVRQAPGKGLEWVSAISSGGGSTDYADSVKGRFTISRDNSKNTLYLQMNSLRPEDTALYYCAADTLYTSLTWYSYWGQGTLVTVSS
0.047 s⁻¹

Provide koff value for the following binder: T0263018B11 S31K (VHH, name in Kabat numbering, FLAG3-His6 tagged) VHH: EVQLVESGGGVVQPGGSLRLSCAASGFTFSKYAMYWVRQAPGKGLEWVSAISSGGGSTDYADSVKGRFTISRDNSKNTLYLQMNSLRPEDTALYYCAADTLYTSLTWYSYWGQGTLVTVSS
0.048 s⁻¹
